Taken from patent US4935505A.

Target: adenosine deaminase (Homo sapiens, UniProt P00813)
Sequence (P00813 whole entry): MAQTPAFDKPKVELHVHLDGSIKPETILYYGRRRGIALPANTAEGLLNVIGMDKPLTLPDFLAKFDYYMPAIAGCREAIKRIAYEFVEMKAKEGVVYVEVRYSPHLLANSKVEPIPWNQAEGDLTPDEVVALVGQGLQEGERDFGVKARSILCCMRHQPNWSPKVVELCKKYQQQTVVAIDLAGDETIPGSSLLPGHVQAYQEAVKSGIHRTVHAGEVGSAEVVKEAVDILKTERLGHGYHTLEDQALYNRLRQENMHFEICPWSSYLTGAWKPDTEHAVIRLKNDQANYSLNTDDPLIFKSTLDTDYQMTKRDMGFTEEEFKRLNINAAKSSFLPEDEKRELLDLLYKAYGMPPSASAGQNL
Assay: Inhibition of adenosine deaminase (ADA), adenosine as substrate, purified enzyme
Type: biochemical
Conditions: Preliminary estimates based on conventional kinetic analysis; adenosine as substrate, purified enzyme; read-out: Ki
From the text: The mixture of the R and S isomers of the 4,5,6-trihydro-1-(β-D-ribofuranosyl) pyrazolo [5,4-d]
pKi: −log10 of the molar value.

- MOLECULE: "OC[C@H]1O[C@@H](n2nnc3c2N=CNC[C@H]3O)[C@H](O)[C@@H]1O [4 (R)]"
  pKi: 8.70

----------
biological target: adenosine deaminase (Homo sapiens); assay: Inhibition of adenosine deaminase (ADA), adenosine as substrate, purified enzyme; type: biochemical; settings: Inhibition of Adenosine Deaminase by Target Compounds; adenosine as substrate, purified enzyme; read-out: Ki
Below, each entry is listed alongside its reported Ki.

- MOLECULE: "OC[C@H]1O[C@@H](n2nnc3c2N=CNC[C@@H]3O)[C@H](O)[C@@H]1O [37 (S)]"
  Ki / µM: 85
- MOLECULE: "OC[C@H]1O[C@@H](n2ncc3c2N=CNCC3O)[C@H](O)[C@@H]1O (mixture of isomers) [(3 + 26)]"
  Ki / µM: 2
